Hey, just so you know, these numbers are from ChEMBL document CHEMBL1149502.

tested on: DU-145; experiment: Cytotoxicity against human DU145 cell line by MTS assay; type: functional, cell-based
measured.metric: IC50 (nM)
Field format: number, assumed nM, no unit text.

IC50 reported for this compound O=C(c1nc2cc[nH]cc-2n1)c1cn(Cc2ccc(Cl)cc2)c2ccccc12 : 50

---

system: HL-60; test: Cytotoxicity against human HL60/TX1000 cell line by MTS assay; assay type: functional, cell-based
measured.metric: IC50 (µM)
Field format: number, assumed µM, no unit text.

# count of solved cases: 8
• O=C(c1nc(C(O)c2cccnc2)c[nH]1)c1cn(Cc2ccc(Cl)cc2)c2ccccc12 (configuration not stated) = 10
• CCNC(=O)c1c[nH]c(C(=O)c2cn(Cc3ccc(Cl)cc3)c3ccccc23)n1 = 5
• Cn1c(C(=O)c2cn(Cc3ccc(Cl)cc3)c3ccccc23)nc2cnccc21 = 10
• O=C(c1nc2ccc[nH]c-2n1)c1cn(Cc2ccc(Cl)cc2)c2ccccc12 = 10
• CCC(=O)c1c[nH]c(C(=O)c2cn(Cc3ccc(Cl)cc3)c3ccccc23)n1 = 0.5
• O=C(c1nc(CO)c[nH]1)c1cn(Cc2ccc(Cl)cc2)c2ccccc12 = 5
• O=C(c1ncc[nH]1)c1cn(Cc2ccc(Cl)cc2)c2ccccc12 = 10
• O=C(O)c1c[nH]c(C(=O)c2cn(Cc3ccc(Cl)cc3)c3ccccc23)n1 = 10

IC50 reported for this compound O=C(c1nc2cc[nH]cc-2n1)c1cn(Cc2ccc(Cl)cc2)c2ccccc12 : 0.05
